Ref: patent US12625142B2

assay: competition binding assay for cardiolipin with fluorescent probe I and CL-DOPC liposomes (25:75 mol %); settings: pH = 6.8; 20 mM HEPES buffer; 2.5 μM CL, 5 μM I; means ± S.D. from 3 independent experiments
Where a name gives a salt, the structure may show the parent alone.

compound | readout-unit | EC50
CCCCCCCCC[P+](c1ccccc1)(c1ccccc1)c1ccccc1.[Br-] [Example 13, Nonyltriphenylphosphonium bromide] | µM | 36.6
COc1cccc2c1C(=O)c1c(O)c3c(c(O)c1C2=O)C[C@@](O)(C(=O)CO)C[C@@H]3O[C@H]1C[C@H](N)[C@@H](O)[C@H](C)O1 [Example 5, hydrochloride] | µM | 5.86
CCCCCCCCCCCC[N+](C)(C)C.[Cl-] [Example 14, Dodecyltrimethylammonium chloride] | µM | 74.4
[Ca+2].[Cl-].[Cl-] [Example 3, Calcium chloride] | µM | 1290
